System: Fusobacterium nucleatum subsp. animalis
Experiment: growth AUC relative to DMSO control (median of replicates) (fraction); higher = more growth (less inhibition), active = hit call of the paper
Details: 20 µM; 24 h
Parameter growth AUC: see the listing below.
experimental_endpoint: growth AUC

compound	reported_value
Cn1cc(-c2ccccc2)c(=O)c(-c2cccc(C(F)(F)F)c2)c1	0.907 (inactive)
CC(C)CC(C)c1sccc1NC(=O)c1cn(C)nc1C(F)(F)F (stereo not drawn)	1.04 (inactive)
CCOC(=O)C(Cl)Cc1cc(-n2nc(C)n(C(F)F)c2=O)c(F)cc1Cl (stereo not drawn)	0.987 (inactive)
CCOc1ccc(C(C)(C)COCc2cccc(Oc3ccccc3)c2)cc1	0.972 (inactive)
CCOP(=O)(N=C1SCC(C)S1)OCC (stereo not drawn)	1.09 (inactive)
C[C@@H](Oc1ccc(Oc2ncc(C(F)(F)F)cc2Cl)cc1)C(=O)O	1.02 (inactive)
COP(=S)(OC)Oc1cc(Cl)c(Br)cc1Cl	0.952 (inactive)
CC1=NNC(=O)N(/N=C/c2cccnc2)C1	1.02 (inactive)
Cc1ccc(NC(=O)N(C)C)cc1Cl	0.916 (inactive)
CCCN(CCC)c1c([N+](=O)[O-])cc(C(C)C)cc1[N+](=O)[O-]	1 (inactive)
O=C1C=CC(=O)C=C1	0.983 (inactive)
CC(C)C1(C)N=C(c2ncccc2C(=O)O)NC1=O (stereo not drawn)	1.04 (inactive)
Nc1cc(Cl)cc(C(=O)O)c1Cl	0.994 (inactive)
CC(C)OP(=O)(OC(C)C)SCc1ccccc1	1.01 (inactive)
CCCCCCCCCCCCCN1CC(C)OC(C)C1 (stereo not drawn)	0.964 (inactive)
CCCOc1nn(C(=O)[N-]S(=O)(=O)c2ccccc2C(=O)OC)c(=O)n1C.[Na+]	1.12 (inactive)
CCOP(=O)(SC(C)CC)N1CCSC1=O (stereo not drawn)	1.01 (inactive)
CCCCNC(=O)n1c(NC(=O)OC)nc2ccccc21	0.976 (inactive)
